# Test system: P388 leukemia ip, CD2F1 mice, survival T/C
# run_description: NCI In Vivo Anticancer Drug Screen. Data for tumor model P388 Leukemia (intraperitoneal) in CD2F1 (CDF1) mice
# experimental_setup: endpoint: median survival time; dose: 100.0 mg/kg/injection; schedule: Q01DX001 (ip); vehicle: saline with Tween-80; higher = longer survival
Inconclusive results and toxic doses are left out.
Measured T/C, listed per entry for reference.
value_kind: T/C

item_smiles=CC(C)(C)Nc1nc2ccccc2c(=O)o1 result="101 % of control"
item_smiles=O=C(CBr)c1cc2c(cc1I)OCO2 result="100 % of control"
item_smiles=Cn1ccn2cnnc2c1=O result="100 % of control"
item_smiles=CNC(=O)Oc1cccc2c1C(=O)OC2=O result="100 % of control"
item_smiles=Ic1ccc([I+]c2ccc(I)cc2)cc1 result="95 % of control"
item_smiles=N#CC(C#N)=Cc1cc2c3c(c1)CCCN3CCC2 result="100 % of control"
item_smiles=Cc1nnc2c(=O)n(C)ccn12 result="97 % of control"
item_smiles=CNC(=O)Nc1ccnc2ccc3c(ncn3C(=O)NC)c12 result="104 % of control"
